# Target system: T1, recombinant human (rhu) PD1 (extracellular domain only) (human, UniProt Q15116 25-170)
# T1 construct: extracellular domain; also called recombinant human PD1
# T1 sequence (Q15116 25-170): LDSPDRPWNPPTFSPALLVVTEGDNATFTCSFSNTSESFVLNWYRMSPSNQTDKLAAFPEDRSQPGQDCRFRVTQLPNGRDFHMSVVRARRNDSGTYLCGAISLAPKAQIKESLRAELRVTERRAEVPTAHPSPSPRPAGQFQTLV
# Test details: SPR (Biacore 3000), antibody captured by anti-human IgG, PD1 as analyte
Observed property: pKd
For clarity, pKd is expressed as the negative log10 of concentration in mol/L.

Value of pKd reported for the binder anti-hPD1 antibody #10 (antibody, human IgG4, V domains shown, also called Anti-hPD1 #10; Anti-PD1 #10) VH: QVQLVQSGAEVKKPGASVKVSCKASGYTFTSYWMHWVRQAPGQGLEWMGEIDPFDSYTNYNQKFKGRVTMTIDKSTNTVYMELSSLGSEDTAVYYCARPGYTYGGMDFWGQGTLVTVSS VL: DIVMTQSPDSLAVSLGERATINCRSSQSLFISGNQKNYLAWYQQKPGQPPKLLIYGASTRDSGVPDRFSGSGSGTDFTLTISSLQAEDVAVYYCQNNHYYPYTFGGGTKVEIK is 9.04
